Target: VAV1 (Homo sapiens, UniProt P15498+Q96SW2)
Construct: A heterozygous VAV1 C-terminal HiBiT knock-in pool was generated at Monte Rosa Therapeutics from a clonal Jurkat cell; endogenous in cells; host or cells: Jurkat clone stably expressing LgBiT, homozygous GSPT1-G575N; heterozygous VAV1-HiBiT knock-in pool
Assay: VAV1 degradation activity, VAV1-HiBiT knock-in Jurkat luminescence assay (Example A, Table 1)
Format: cell-based
Details: Jurkat, VAV1-HiBiT knock-in Jurkat cells, luminescence read at 6 and 24 hours after compound addition; read-out: VAV1 Dmax %
readout name: Dmax (%)

[[record]]
compound = "O=C1CCC(c2cccc(-c3ccc4cn[nH]c4c3)c2Cl)C(=O)N1 (centres unmarked) [Compound 484]"
test_system = "VAV1 (Homo sapiens, UniProt P15498+Q96SW2)"
readout_name = "Dmax"
value_units = "%"
recorded_value = 78.4

[[record]]
compound = "Cn1cncc1Cn1ncc2cc(-c3cccc(C4CCC(=O)NC4=O)c3Cl)ccc21 (centres unmarked) [Compound 508]"
test_system = "VAV1 (Homo sapiens, UniProt P15498+Q96SW2)"
readout_name = "Dmax"
value_units = "%"
recorded_value = 92

[[record]]
compound = "Cn1ccc(CN2C(=O)Cc3cc(-c4cccc(C5CCC(=O)NC5=O)c4Cl)ccc32)n1 (centres unmarked) [Compound 496]"
test_system = "VAV1 (Homo sapiens, UniProt P15498+Q96SW2)"
readout_name = "Dmax"
value_units = "%"
recorded_value = 95.6

[[record]]
compound = "O=C1CCC(c2cccc(-c3ccc4c(c3)CC(=O)N4)c2Cl)C(=O)N1 (centres unmarked) [Compound 493]"
test_system = "VAV1 (Homo sapiens, UniProt P15498+Q96SW2)"
readout_name = "Dmax"
value_units = "%"
recorded_value = 75.7

[[record]]
compound = "Cn1cnc(CN2C(=O)Cc3cc(-c4cccc(C5CCC(=O)NC5=O)c4Cl)ccc32)c1 (centres unmarked) [Compound 504]"
test_system = "VAV1 (Homo sapiens, UniProt P15498+Q96SW2)"
readout_name = "Dmax"
value_units = "%"
recorded_value = 96.7

[[record]]
compound = "Cn1ccc(CN2C(=O)COc3cc(-c4cccc(C5CCC(=O)NC5=O)c4Cl)ccc32)n1 (centres unmarked) [Compound 502]"
test_system = "VAV1 (Homo sapiens, UniProt P15498+Q96SW2)"
readout_name = "Dmax"
value_units = "%"
recorded_value = 97.8

[[record]]
compound = "O=C1CCC(c2cccc(-c3ccc4c(c3)CC(=O)N4Cc3cocn3)c2Cl)C(=O)N1 (centres unmarked) [Compound 505]"
test_system = "VAV1 (Homo sapiens, UniProt P15498+Q96SW2)"
readout_name = "Dmax"
value_units = "%"
recorded_value = 80.7

[[record]]
compound = "Cn1ccc(Cc2noc3cc(-c4cccc(C5CCC(=O)NC5=O)c4Cl)ccc23)n1 (centres unmarked) [Compound 510]"
test_system = "VAV1 (Homo sapiens, UniProt P15498+Q96SW2)"
readout_name = "Dmax"
value_units = "%"
recorded_value = 89.2

[[record]]
compound = "CC1Cc2cc(-c3cccc(C4CCC(=O)NC4=O)c3Cl)ccc2N1 (centres unmarked) [Compound 500]"
test_system = "VAV1 (Homo sapiens, UniProt P15498+Q96SW2)"
readout_name = "Dmax"
value_units = "%"
recorded_value = 98.5

[[record]]
compound = "Cn1ccc(Cn2c(=O)oc3cc(-c4cccc(C5CCC(=O)NC5=O)c4Cl)ccc32)n1 (centres unmarked) [Compound 507]"
test_system = "VAV1 (Homo sapiens, UniProt P15498+Q96SW2)"
readout_name = "Dmax"
value_units = "%"
recorded_value = 91.8

[[record]]
compound = "O=C1CCC(c2cccc(-c3ccc4c(c3)CCC(=O)N4)c2Cl)C(=O)N1 (centres unmarked) [Compound 492]"
test_system = "VAV1 (Homo sapiens, UniProt P15498+Q96SW2)"
readout_name = "Dmax"
value_units = "%"
recorded_value = 94.3

[[record]]
compound = "Cn1ccc(CN2CCc3cc(-c4cccc(C5CCC(=O)NC5=O)c4Cl)ccc32)n1 (centres unmarked) [Compound 489]"
test_system = "VAV1 (Homo sapiens, UniProt P15498+Q96SW2)"
readout_name = "Dmax"
value_units = "%"
recorded_value = 97.8

[[record]]
compound = "Cn1ccc(CN2C(=O)CCc3cc(-c4cccc(C5CCC(=O)NC5=O)c4Cl)ccc32)n1 (centres unmarked) [Compound 501]"
test_system = "VAV1 (Homo sapiens, UniProt P15498+Q96SW2)"
readout_name = "Dmax"
value_units = "%"
recorded_value = 97.7

[[record]]
compound = "O=C1CCC(c2cccc(-c3ccc4c(c3)CCCN4)c2Cl)C(=O)N1 (centres unmarked) [Compound 486]"
test_system = "VAV1 (Homo sapiens, UniProt P15498+Q96SW2)"
readout_name = "Dmax"
value_units = "%"
recorded_value = 96.2

[[record]]
compound = "CN1CCc2cc(-c3cccc(C4CCC(=O)NC4=O)c3Cl)ccc21 (centres unmarked) [Compound 488]"
test_system = "VAV1 (Homo sapiens, UniProt P15498+Q96SW2)"
readout_name = "Dmax"
value_units = "%"
recorded_value = 91

[[record]]
compound = "O=C1CCC(c2cccc(-c3ccc4cc[nH]c4c3)c2Cl)C(=O)N1 (centres unmarked) [Compound 483]"
test_system = "VAV1 (Homo sapiens, UniProt P15498+Q96SW2)"
readout_name = "Dmax"
value_units = "%"
recorded_value = 88.1

[[record]]
compound = "CN1Cc2cc(-c3cccc(C4CCC(=O)NC4=O)c3Cl)ccc2N(Cc2ccn(C)n2)C1=O (centres unmarked) [Compound 503]"
test_system = "VAV1 (Homo sapiens, UniProt P15498+Q96SW2)"
readout_name = "Dmax"
value_units = "%"
recorded_value = 90


---

Readings of DC50 for the listed compounds
Biological target: VAV1 (Homo sapiens, UniProt P15498+Q96SW2)
Construct: A heterozygous VAV1 C-terminal HiBiT knock-in pool was generated at Monte Rosa Therapeutics from a clonal Jurkat cell; endogenous in cells; host or cells: Jurkat clone stably expressing LgBiT, homozygous GSPT1-G575N; heterozygous VAV1-HiBiT knock-in pool
Assay: VAV1 degradation activity, VAV1-HiBiT knock-in Jurkat luminescence assay (Example A, Table 1)
Type: cell-based
Details: VAV1-HiBiT knock-in Jurkat cells, luminescence read at 6 and 24 hours; read-out: VAV1 DC50 (nM), class

Kindly note the recorded DC50 for O=C1CCC(c2cccc(-c3ccc(Cc4cccs4)cc3)c2Cl)C(=O)N1 (centres unmarked) [Compound 377] , which is ≤ 100 nM

Record CNc1ccc(-c2cccc(C3CCC(=O)NC3=O)c2Cl)cc1C (centres unmarked) [Compound 116] . Reported DC50: ≤ 100 nM

The compound listed as O=C1CCC(c2cccc(-c3ccc(NC(=O)c4ccno4)cc3)c2Cl)C(=O)N1 (centres unmarked) [Compound 228] has a reported DC50 of 100 to 1000 nM

Short answer for Cn1cnc(Cc2ccc(-c3cccc(C4CCC(=O)NC4=O)c3Cl)cc2)c1 (centres unmarked) [Compound 408] : DC50 was ≤ 100 nM

// recorded DC50 for O=C1CCC(c2cccc(-c3ccc(N4C(=O)NCCC45CCC5)cc3)c2Cl)C(=O)N1 (centres unmarked) [Compound 349] : ≤ 100 nM

C[C@H]1COCC(=O)N1Cc1ccc(-c2cccc(C3CCC(=O)NC3=O)c2Cl)cc1 (some centres unmarked) [Compound 265] yielded DC50 of ≤ 100 nM

response.value for O=C1CCC(c2cccc(-c3ccc(Cc4cocn4)cc3)c2Cl)C(=O)N1 (centres unmarked) [Compound 442] (field: DC50) = ≤ 100 nM

The recorded DC50 for entry C[C@@H]1COCC(=O)N1c1ccc(-c2cccc(C3CCC(=O)NC3=O)c2Cl)cc1 (some centres unmarked) [Compound 441] equals ≤ 100 nM

DC50 in this record for O=C1CCC(c2cccc(-c3ccc(CN4CCOCC4=O)cc3)c2Cl)C(=O)N1 (centres unmarked) [Compound 302] : ≤ 100 nM

The reported value for CN1CC(=O)N(Cc2ccc(-c3cccc(C4CCC(=O)NC4=O)c3Cl)cc2)c2cccnc21 (centres unmarked) [Compound 255] in terms of DC50 is ≤ 100 nM

Short answer for O=C1CCC(c2cccc(-c3ccc(N4CCCCC4)cc3)c2Cl)C(=O)N1 (centres unmarked) [Compound 459] : DC50 was 100 to 1000 nM

The compound identified as O=C1CCC(c2cccc(-c3ccc(OCc4ccccn4)cc3)c2Cl)C(=O)N1 (centres unmarked) [Compound 103] registered its DC50 at ≤ 100 nM

Per the records, this compound ( O=C1CCC(c2cccc(-c3ccc(N4C(=O)CCCC45CCC5)cc3)c2Cl)C(=O)N1 (centres unmarked) [Compound 339] ) has DC50 equal to ≤ 100 nM

Item: N#CC1(CN2C(=O)Cc3cc(-c4cccc(C5CCC(=O)NC5=O)c4Cl)ccc32)CC1 (centres unmarked) [Compound 390] | DC50: 100 to 1000 nM

Lookup result for CN1CCCN(Cc2ncc(-c3cccc(C4CCC(=O)NC4=O)c3Cl)cc2F)C1=O (centres unmarked) [Compound 383] ; measured DC50: 100 to 1000 nM

get_value(item= O=C1CCC(c2cccc(-c3ccc(CN4C(=O)CCn5nccc54)cc3)c2Cl)C(=O)N1 (centres unmarked) [Compound 253] , readout=DC50) returns ≤ 100 nM

The compound identified as O=C1CCC(c2cccc(-c3ccc(CN4CC5CCCC5C4=O)cc3)c2Cl)C(=O)N1 (centres unmarked) [Compound 282] registered its DC50 at ≤ 100 nM

Origin of measurements: patent US12257247B2
